Every entry's value here was drawn from patent US20180230213A1.

target: T1, monomeric recombinant cynomologus monkey Notch3 extracellular domain (containing EGF like domains 1-12) … (cynomologus monkey); test: SPR BIAcore T100, antibody captured by anti-human IgG Fc, monomeric rcNotch3 analyte, 37 C
T1 construct: domain: EGF like domains 1-12; also called monomeric rcNotch3
Threshold 500000 M⁻¹ s⁻¹. kon below it: fulfilled. kon at it or above: not fulfilled.

BINDER	ASSIGNED CATEGORY
Hu4F11-76 (antibody, human IgG1, kappa, V domains shown, Humanized, human IgG1 kappa; Hv3-23 S31H T62S heavy + Kv2D-29 N28Y kappa) VH: EVQLLESGGGLVQPGGSLRLSCAASGFAFSHYDMSWVRQAPGKGLEWVSYISRGGGSTYYPDSVKGRFTISRDNSKNTLYLQMNSLRAEDTAVYYCGRHATTAYWYFDVWGQGTMVTVSS VL: DVVMTQTPLSLSVTPGQPASISCRSSQSLVHTYGNTYLHWYLQKPGQSPQLLIYKVSNRFSGVPDRFSGSGSGTDFTLKISRVEAEDVGVYFCSQSTHVPWTFGQGTKVEIKR	not fulfilled
Hu4F11-78 (antibody, human IgG1, kappa, V domains shown, Humanized, human IgG1 kappa; Hv3-23 A28T S31H T62S heavy + Kv2D-29 N28Q kappa) VH: EVQLLESGGGLVQPGGSLRLSCAASGFTFSHYDMSWVRQAPGKGLEWVSYISRGGGSTYYPDSVKGRFTISRDNSKNTLYLQMNSLRAEDTAVYYCGRHATTAYWYFDVWGQGTMVTVSS VL: DVVMTQTPLSLSVTPGQPASISCRSSQSLVHTQGNTYLHWYLQKPGQSPQLLIYKVSNRFSGVPDRFSGSGSGTDFTLKISRVEAEDVGVYFCSQSTHVPWTFGQGTKVEIKR	not fulfilled
Hu4F11-72 (antibody, human IgG1, kappa, V domains shown, Humanized, human IgG1 kappa; Hv3-23 S31H T62S heavy + Kv2D-29 N28H kappa) VH: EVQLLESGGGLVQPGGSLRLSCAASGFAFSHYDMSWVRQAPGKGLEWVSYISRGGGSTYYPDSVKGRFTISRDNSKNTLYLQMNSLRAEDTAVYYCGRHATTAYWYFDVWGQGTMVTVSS VL: DVVMTQTPLSLSVTPGQPASISCRSSQSLVHTHGNTYLHWYLQKPGQSPQLLIYKVSNRFSGVPDRFSGSGSGTDFTLKISRVEAEDVGVYFCSQSTHVPWTFGQGTKVEIKR	fulfilled
Hu4F11-71 (antibody, human IgG1, kappa, V domains shown, Humanized, human IgG1 kappa; Hv3-23 A28T T62S heavy + Kv2D-29 N28H kappa) VH: EVQLLESGGGLVQPGGSLRLSCAASGFTFSSYDMSWVRQAPGKGLEWVSYISRGGGSTYYPDSVKGRFTISRDNSKNTLYLQMNSLRAEDTAVYYCGRHATTAYWYFDVWGQGTMVTVSS VL: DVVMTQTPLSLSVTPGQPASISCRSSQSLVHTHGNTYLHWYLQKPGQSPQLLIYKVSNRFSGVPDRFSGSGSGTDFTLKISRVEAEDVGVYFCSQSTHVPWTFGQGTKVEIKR	fulfilled
